measurement_name: melting point

O=C(Cl)c1ccc([N+](=O)[O-])cc1 [4-Nitrobenzoyl chloride]; 75 °C
Oc1cccc(Br)c1; 31 °C
SCCCS; -79 °C
CC1CCC(C(C)C)C(O)C1 (stereo unspecified) [menthol]; 45 °C
Cc1c(N)cccc1N; 97 °C

Give melting point for all compounds that follow.
1. CCOC(=O)C(C(=O)OCC)c1ccccc1 [diethyl phenylmalonate]
2. C=CS(=O)(=O)c1ccccc1
3. c1ccc2c(c1)oc1ccccc12
4. O=C(C=Cc1ccc([N+](=O)[O-])cc1)c1ccccc1
5. Cc1cc(C)c(C(=O)C(=O)O)c(C)c1

["16 °C", "69 °C", "81 °C", "161 °C", "121 °C"]

# input compound: "CC(=O)C(C)C" ; wanted: its melting point
-92 °C

###

Could you please report measured melting point for the items listed next?
Give bare numbers, in °C.

CC1(C)CC(=O)CC(=O)C1 [5,5-Dimethylcyclohexane-1,3-dione]; 148
Cc1cc(C2(c3cc(C)c(O)c(CN(CC(=O)O)CC(=O)O)c3)OS(=O)(=O)c3ccccc32)cc(CN(CC(=O)O)CC(=O)O)c1O; 210
Cc1cccc(-c2ccccc2)c1 [3-methylbiphenyl]; 5
O=C1CCOc2ccccc21 [4-chromanone]; 38
CCC1(c2ccccc2)NC(=O)N(C)C1=O (configuration not stated) [mephenytoin]; 136

Give melting point for each of the items listed below.
1. COc1ccc(-c2csc(/C(C#N)=N/Nc3ccc(C)cc3)n2)cc1
2. C1CCCCC1 [cyclohexane]
3. CCCCCCCC(=O)CC [3-decanone]
4. CCOC(C)=O [ethyl acetate]
5. CC(=O)c1ccc(Cl)cc1Cl [2,4-dichloroacetophenone]
6. COC(=O)c1ccccc1 [methyl_benzoate]
7. CCOC(=O)/C=C/c1ccccc1N [Ethyl (2E)-3-(2-aminophenyl)acrylate]
8. Nc1ccc(S(=O)(=O)Nc2nccs2)cc1 [4-Amino-N-(1,3-thiazol-2-yl)benzenesulfonamide]

[152, 7, -4, -84, 34, -12, 77, 202]

Value sought for every listed molecule: melting point.
1. CCCCOCCOCCOC(C)=O [2-(2-n-butoxyethoxy)ethyl acetate]
2. NNC(=O)c1ccncc1 [isoniazid]
3. CC1NC(C(=O)O)CC2=C3C=CCC=C3N=C21 (configuration not stated)
4. O=C(O)CCCCCCCCC(=O)O [Sebacic acid]
5. CNC(=C[N+](=O)[O-])NCCSCc1ccc(CN(C)C)o1 [ranitidine]
6. O=C(O)CCCc1ccc2ccc3cccc4ccc1c2c34 [1-pyrenebutyric acid]
7. Cc1cc(Br)cc(C)c1N=C=S [4-bromo-2,6-dimethylphenyl isothiocyanate]

[-32, 171, 244, 134, 69, 185, 80]

Hello, I would appreciate it if you could give melting point for each entry below.
1. O=C(CCCN1CCC(O)(c2ccc(Cl)cc2)CC1)c1ccc(F)cc1 [haloperidol]
2. Cc1cccc2cc[nH]c12 [7-methylindole]

148
84

###

Each entry belongs to exactly one class, chosen by where its melting point falls: low bracket (below 50 °C), middle bracket (50 °C to below 100 °C), high bracket (100 °C or more)

Known results for compounds:
NNC=O [formic acid hydrazide]; middle bracket
CCCCc1ccccc1 [N-Butylbenzene]; low bracket
COC(=O)c1ccc(O)cc1 [methyl_4-hydroxybenzoate]; high bracket

Which melting point category applies to CC(CN(C)C)CN1c2ccccc2CCc2ccccc21 (stereo unspecified) here?
low bracket

Please report the category associated with "O=C(O)CCCCCC(=O)O" , nothing else.
high bracket

Which class holds "C[C@]12CC[C@H]3[C@@H](CCC4=CC(=O)CC[C@@]43C)[C@@H]1CC[C@@H]2C(=O)CO" ?
high bracket

###

measurement_name: melting point (°C)
Answers are plain numbers, in °C.

Oc1cccc(C2CNCCN2)c1 (centres undefined); 184
O=C(O)c1ccc2c(c1)no[n+]2[O-]; 128
CCOC(=O)c1ccc(N)cc1 [ethyl 4-aminobenzoate]; 90
O=C(O)c1c(F)c(F)c(F)c(F)c1C(=O)O; 156
OCc1ccc(O)cc1 [4-hydroxybenzyl alcohol]; 118

List melting point for every entry below, keeping the order given.
1. CCCCCCCC(=O)O [octanoic_acid]
2. O=C[C@H](O)[C@@H](O)[C@@H](O)CO (racemic)
3. O=C(c1ccccc1)c1ccc(Cl)c(Cl)c1
4. COC(=O)c1cc(OC)c(O)c(OC)c1 [methyl 3,5-dimethoxy-4-hydroxybenzoate]
5. Cc1[nH]c(C)c(C)c1C

1: 17; 2: 159; 3: 102; 4: 106; 5: 105

###

Give melting point for every item shown.
Numbers only, in °C.

COc1ccc(C(=O)Cl)cc1 [4-methoxybenzoyl chloride]; 22

Please report melting point for every entry that follows.
1. N#CCc1ccc([N+](=O)[O-])cc1
2. Cc1ccc(C(=O)c2ccccc2)cc1 [(4-Methylphenyl)(phenyl)methanone]
3. OB(O)c1ccccc1F
4. CC(=O)C(C)(C)C [3,3-dimethyl-2-butanone]
5. CON=C(/c1ccco1)C(=O)N[C@@H]3C(=O)N2C(=C(COC(N)=O)CS[C@@H]23)C(=O)O
6. Cc1ccc(C(=O)c2nn(-c3ccccc3)/c(=N\N=C\c3ccco3)s2)cc1

1: 116; 2: 57; 3: 104; 4: -52; 5: 222; 6: 114

// batch mode: one melting point value per listed entry
1. C/C(C)=C(/C)C
2. CCCCC1=NC2(CCCC2)C(=O)N1Cc1ccc(-c2ccccc2-c2nnn[nH]2)cc1

[-74, 180]

###

measurement_name: melting point (°C)
Answers are plain numbers, in °C.

Consider the worked cases shown below.
O=Cc1ccc(C(=O)O)cc1; 247
CC(CCC(=O)O)C1CCC2C3CCC4CC(=O)CCC4(C)C3CCC12C (stereo unspecified); 140
Nc1ccc(O)c2c1C(=O)c1ccccc1C2=O [1-amino-4-hydroxyanthraquinone]; 208

Report melting point for every entry below.
1. C1CCOCC1 [Tetrahydropyran]
2. S=P(N1CC1)(N1CC1)N1CC1
3. Nc1ccccc1CO

1: -45; 2: 51.5; 3: 83

List the reported melting point of each compound below.
1. CCCCCCCCCCC(O)CCCCCCCCCC
2. CC(=O)c1ccc(C)cc1 [p-methylacetophenone]
3. CCc1c(C)[nH]c2ccc(N(C)C)cc12
4. NC(N)=S
5. O=[N+]([O-])c1cc[n+]([O-])c2ccccc12 [4-nitroquinoline n-oxide]
6. CCn1cc(C(=O)O)c(=O)c2ccc(C)nc21
7. CCCS

1. 72
2. 24
3. 100
4. 177
5. 155
6. 230
7. -113

Okay, here is my list. What is melting point for each of these?
1. CC(C)/C=N/Nc1ccc([N+](=O)[O-])cc1[N+](=O)[O-] [(2E)-1-(2,4-Dinitrophenyl)-2-(2-methylpropylidene)hydrazine]
2. CCCCCCCCCCl
3. C[C@]12CC[C@H]3[C@@H](CCC4=CC(=O)CC[C@@]43C)[C@@H]1CC[C@@H]2O [testosterone]
4. OC1COC2C(O)COC12 (stereo unspecified) [isosorbide]
5. CCCC(C)C1(CC)C(=O)NC(=O)NC1=O (stereo unspecified)
6. CC(C)CC(C)(C)C [2,2,4-trimethylpentane]

186
-39
154
61
130
-107

Record melting point per entry; entries follow.
1. COC(=O)[C@@H](N)Cc1ccc(O)cc1 [Methyl L-tyrosinate]
2. OCc1ccccc1-c1ccccc1
3. CN(C)c1ccc(C(=O)Cl)cc1 [4-dimethylaminobenzoyl chloride]

134
50
145

Hey, quick one: what's melting point for each of these?
1. C[C@]12CCC(=O)C=C1CC[C@@H]1[C@@H]2C(O)C[C@@]2(C)[C@H]1CC[C@]2(O)C(=O)CO (stereo partly specified) [11,17,21-Trihydroxypregn-4-ene-3,20-dione]
2. Nc1ccc(S(=O)(=O)c2ccc(N)cc2)cc1
3. Cc1ncc([N+](=O)[O-])n1C
4. O=C2/N=C\1/N(c3cc(c(cc3/N=C/1C(=O)N2)C)C)CC(O)C(O)C(O)CO (stereo unspecified)
5. CCCCCCCCC(C)O (stereo unspecified)
6. COc1ccc2c(c1)no[n+]2[O-]
7. CS(=O)c1ccc(B(O)O)cc1 (stereo unspecified)

1: 223; 2: 176; 3: 140; 4: 280; 5: -5; 6: 117; 7: 170

Below is a list of compounds. For each, state its recorded melting point.
1. CCCC(=O)CCC [4-heptanone]
2. COc1ccc(OC)c(B(O)O)c1
3. CCCSc1ccc2[nH]c(NC(=O)OC)nc2c1
4. Cc1cccc(-c2nnn[nH]2)c1

1: -33; 2: 93; 3: 208; 4: 145

# batch: return melting point for each of the 6 compounds below
1. C=CCN1CC[C@]23CCCC[C@H]2[C@H]1Cc1ccc(O)cc13
2. Brc1ccc(Br)cc1
3. Cc1cc(C)c(Br)c(C)c1
4. Cc1cccc2c1Cc1ccccc1-2
5. CCCCCCCCOc1ccc(NC(=O)c2ccc(OC)cc2)cc1 [4-methoxy-N-[4-(octyloxy)phenyl]benzamide]
6. Nc1ccc([N+](=O)[O-])cc1C(=O)c1ccccc1

181
88
2
85
153
167

Batch request: melting point per item, same order as input.
1. Cc1cccc(O)c1 [m-cresol]
2. COc1cc(/C=C/C(=O)CC(=O)/C=C/c2ccc(O)c(OC)c2)ccc1O

1: 12; 2: 180
